Entries and their measured Chlamydomonas. HST % I at 100 ppm follow.
- Target System: Chlamydomonas HST (Chlamydomonas reinhardtii, UniProt A1JHN0)
- Construct: GST (N); made in house; host or cells: E. coli (BL21A1 / BL21DE3), membrane fraction
- Sequence (A1JHN0 51-370): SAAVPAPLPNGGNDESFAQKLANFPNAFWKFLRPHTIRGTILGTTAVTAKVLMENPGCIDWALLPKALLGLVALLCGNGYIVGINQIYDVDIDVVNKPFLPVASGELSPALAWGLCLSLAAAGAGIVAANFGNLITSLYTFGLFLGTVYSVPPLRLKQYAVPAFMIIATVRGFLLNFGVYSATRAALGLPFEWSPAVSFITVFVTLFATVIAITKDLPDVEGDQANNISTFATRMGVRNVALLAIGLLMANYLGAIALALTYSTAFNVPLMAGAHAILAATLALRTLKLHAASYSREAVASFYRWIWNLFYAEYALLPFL
- Protocol Summary: HST assay (TLC, MFBQ formed), recombinant Chlamydomonas HST in E. coli membranes
- Type: biochemical
- Condition Info: 100 ppm; TLC, estimated amount of MFBQ formed, relative to controls
State just the number; it will be interpreted in %.

Compound	Chlamydomonas. HST % I at 100 ppm / %
Cn1c(=O)c(-c2c(F)ccc(Br)c2Cl)c(O)c2nccnc21	90
O=c1[nH]c2nccnc2c(O)c1-c1ccccc1OC(F)(F)F	20
O=c1c(-c2c(F)ccc(F)c2Cl)c(O)c2nccnc2n1CC(F)F	85

Would you mind telling me what Chlamydomonas. HST % I at 100 ppm value was observed for O=c1[nH]c2nccnc2c(O)c1-c1c(F)ccc(F)c1Cl ?
20

Would you mind telling me what Chlamydomonas. HST % I at 100 ppm value was observed for Nc1nc[nH]n1 [Amitrole, reference compound] ?
0

Would you mind telling me what Chlamydomonas. HST % I at 100 ppm value was observed for Cn1c(=O)c(-c2c(F)ccc(F)c2Cl)c(O)c2nccnc21 ?
45

Would you mind telling me what Chlamydomonas. HST % I at 100 ppm value was observed for O=c1[nH]c2nccnc2c(O)c1-c1c(F)ccc(Br)c1Cl ?
40

Would you mind telling me what Chlamydomonas. HST % I at 100 ppm value was observed for Oc1c(Cl)c(F)nc(F)c1Cl ?
95

Would you mind telling me what Chlamydomonas. HST % I at 100 ppm value was observed for CN1CC(c2c(F)ccc(F)c2Cl)=C(O)c2ncccc21 ?
0

Would you mind telling me what Chlamydomonas. HST % I at 100 ppm value was observed for Cc1cc(C)c(-c2c(O)c3nccnc3n(C)c2=O)c(C)c1 ?
95

* * *

- Test system: weeds
- Protocol Summary: Glasshouse weed control, HST inhibitors alone and with A22, post-emergence
- Type: in vivo
- Condition Info: Digitaria sanguinalis, 336 h, DIGSA, 14 DAT, 250 g/ha alone, single replicate, read-out: % control score, Obs
Decision: pest or weed control at 250 g/ha >= 50% yields criterion met, all other cases yield criterion not met.

Compound	Cat
O=c1c(-c2c(Cl)cccc2C(F)(F)F)c(O)c2nccnc2n1CC(F)F	criterion met

Hi, just wondering whether O=c1c(-c2cc(Cl)ccc2C(F)(F)F)c(O)c2nccnc2n1CC(F)F shows pest or weed control at 250 g/ha of 50% or higher.
criterion met

Hi, just wondering whether O=c1c(-c2c(F)ccc(Br)c2Cl)c(O)c2cccnc2n1CC(F)F shows pest or weed control at 250 g/ha of 50% or higher.
criterion not met

Hi, just wondering whether Cn1c(=O)c(-c2c(Cl)cccc2C(F)(F)F)c(O)c2nccnc21 shows pest or weed control at 250 g/ha of 50% or higher.
criterion not met

Hi, just wondering whether O=c1c(-c2cc(C(F)(F)F)ccc2Cl)c(O)c2nccnc2n1CC(F)F shows pest or weed control at 250 g/ha of 50% or higher.
criterion not met

Hi, just wondering whether O=c1c(-c2c(F)ccc(Cl)c2Cl)c(O)c2nccnc2n1CC(F)F shows pest or weed control at 250 g/ha of 50% or higher.
criterion not met

Hi, just wondering whether O=c1c(-c2c(F)ccc(Br)c2Cl)c(O)c2nccnc2n1CC(F)F shows pest or weed control at 250 g/ha of 50% or higher.
criterion met

Hi, just wondering whether O=c1c(-c2c(Cl)ccc(Cl)c2Cl)c(O)c2nccnc2n1CC(F)F shows pest or weed control at 250 g/ha of 50% or higher.
criterion not met

Hi, just wondering whether CC1=NN(C)C(=O)C(c2c(C)cc(C)cc2C)C1=O (centres unmarked) shows pest or weed control at 250 g/ha of 50% or higher.
criterion not met

Hi, just wondering whether O=S1(=O)C(c2ccc(Br)cc2C(F)(F)F)=C(O)c2nccnc2N1CC(F)F shows pest or weed control at 250 g/ha of 50% or higher.
criterion not met

* * *

- Target System: Arabidopsis HST (Arabidopsis thaliana)
- Construct: GST (factor Xa cleavage site) (N); made in house; host or cells: Sf9 insect cells (baculovirus, pAcG3X), membrane fraction
- Sequence (Q1ACB3 70-386): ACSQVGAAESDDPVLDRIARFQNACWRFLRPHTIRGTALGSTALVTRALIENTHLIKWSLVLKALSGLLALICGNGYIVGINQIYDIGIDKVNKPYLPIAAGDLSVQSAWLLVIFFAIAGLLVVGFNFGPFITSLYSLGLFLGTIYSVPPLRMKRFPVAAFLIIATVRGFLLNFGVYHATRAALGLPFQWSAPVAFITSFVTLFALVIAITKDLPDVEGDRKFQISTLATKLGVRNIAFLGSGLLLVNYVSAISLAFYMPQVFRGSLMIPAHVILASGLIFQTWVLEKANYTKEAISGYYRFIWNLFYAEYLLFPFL
- Protocol Summary: HST total extraction (non TLC) assay, recombinant Arabidopsis HST from insect cells
- Assay type: biochemical
Note to self: Estimated IC50 (ppm) under 20 ppm means 1, ties and anything higher get 0.

Known results for compounds:
Compound	Cat
O=c1c(-c2cc(C(F)(F)F)ccc2Cl)c(O)c2nccnc2n1CC(F)F [Compound 2.9]	1
O=c1c(-c2c(F)ccc(F)c2Cl)c(O)c2nccnc2n1CC(F)(F)F [Compound 2.17]	0
O=c1c(-c2c(F)ccc(Br)c2Cl)c(O)c2nccnc2n1CC(F)F [Compound 2.8]	1
CC1=NN(C)C(=O)C(c2c(C)cc(C)cc2C)C1=O (stereo not drawn) [Compound 6.1]	0
O=c1c(-c2cc(Cl)ccc2C(F)(F)F)c(O)c2nccnc2n1CC(F)F [Compound 2.19]	1
O=S1(=O)C(c2ccc(Br)cc2C(F)(F)F)=C(O)c2nccnc2N1CC(F)F [Compound 3.5]	0
O=c1c(-c2c(F)ccc(Cl)c2Cl)c(O)c2nccnc2n1CC(F)F [Compound 2.21]	0
O=c1c(-c2c(F)ccc(Br)c2Cl)c(O)c2cccnc2n1CC(F)F [Compound 2.15]	1

Next, consider the following compound.
Quick check: Estimated IC50 (ppm) of O=c1c(-c2c(Cl)cccc2C(F)(F)F)c(O)c2nccnc2n1CC(F)F [Compound 2.20] under 20 ppm?
1

* * *

- Tested on: weeds
- Protocol Summary: Glasshouse weed control, HST inhibitors alone and with A22, post-emergence
- Format: in vivo
- Condition Info: Digitaria sanguinalis, 336 h, DIGSA, 14 DAT, 15.625 g/ha alone, single replicate, read-out: % control score, Obs
Entries and their measured pest or weed control at 15.625 g/ha follow.
State just the number; it will be interpreted in %.

Compound	Value
O=c1c(-c2c(F)ccc(F)c2Cl)c(O)c2nccnc2n1CC(F)(F)F	0

Would you mind telling me what pest or weed control at 15.625 g/ha value was observed for O=c1c(-c2c(F)ccc(Br)c2Cl)c(O)c2nccnc2n1CC(F)F ?
5

Would you mind telling me what pest or weed control at 15.625 g/ha value was observed for O=c1c(-c2cc(Cl)ccc2C(F)(F)F)c(O)c2nccnc2n1CC(F)F ?
30

Would you mind telling me what pest or weed control at 15.625 g/ha value was observed for Cn1c(=O)c(-c2c(Cl)cccc2C(F)(F)F)c(O)c2nccnc21 ?
0

* * *

- Tested on: HST in spinach chloroplast extract
- Protocol Summary: HST assay (TLC, MFBQ formed), spinach chloroplast extract
- Format: biochemical
- Condition Info: 25 ppm; TLC, estimated amount of MFBQ formed, relative to controls
Property Label: Spinach chloroplast extract % I at 25 ppm

Solved cases below.
Test Smiles	Value
O=c1c(-c2c(F)ccc(F)c2Cl)c(O)c2cccnc2n1CC(F)F	40%
Oc1c(Cl)c(F)nc(F)c1Cl	70%

Would you mind telling me what Spinach chloroplast extract % I at 25 ppm value was observed for Oc1c(F)c(F)nc(F)c1Br ?
65%

Would you mind telling me what Spinach chloroplast extract % I at 25 ppm value was observed for O=c1[nH]c2nccnc2c(O)c1-c1ccccc1OC(F)(F)F ?
0%

Would you mind telling me what Spinach chloroplast extract % I at 25 ppm value was observed for O=S1(=O)C(c2c(Cl)ccc(Cl)c2Cl)=C(O)c2nccnc2N1CC(F)F ?
40%

* * *

- Test system: weeds
- Protocol Summary: Glasshouse weed control, HST inhibitors alone and with A22, pre-emergence
- Format: in vivo
- Condition Info: SIDSP, 14 DAT, HST inhibitor rate 250 g/ha
Property Label: SIDSP Obs, % control score (%)
State just the number; it will be interpreted in %.

Solved cases below.
Test Smiles	Unit Tag	SIDSP Obs, % control score
C#Cn1c(=O)c(-c2c(F)ccc(F)c2Cl)c(O)c2nccnc21	%	30
CC(C)(C)C(=O)Oc1c(-c2c(F)ccc(Cl)c2Cl)c(=O)n(CC(F)F)c2nccnc12	%	2
CC(C)C(=O)Oc1c(-c2c(Cl)cccc2C(F)(F)F)c(=O)n(CC(F)F)c2nccnc12	%	10

Would you mind telling me what SIDSP Obs, % control score value was observed for O=c1c(-c2c(F)ccc(F)c2Cl)c(O)c2nccnc2n1CC(F)F ?
20
